All values here come from paper PMC4336329.

Target: human ether-à-go-go-related gene (hERG) potassium channel (human, UniProt Q12809)
Sequence (Q12809 whole entry, looked up): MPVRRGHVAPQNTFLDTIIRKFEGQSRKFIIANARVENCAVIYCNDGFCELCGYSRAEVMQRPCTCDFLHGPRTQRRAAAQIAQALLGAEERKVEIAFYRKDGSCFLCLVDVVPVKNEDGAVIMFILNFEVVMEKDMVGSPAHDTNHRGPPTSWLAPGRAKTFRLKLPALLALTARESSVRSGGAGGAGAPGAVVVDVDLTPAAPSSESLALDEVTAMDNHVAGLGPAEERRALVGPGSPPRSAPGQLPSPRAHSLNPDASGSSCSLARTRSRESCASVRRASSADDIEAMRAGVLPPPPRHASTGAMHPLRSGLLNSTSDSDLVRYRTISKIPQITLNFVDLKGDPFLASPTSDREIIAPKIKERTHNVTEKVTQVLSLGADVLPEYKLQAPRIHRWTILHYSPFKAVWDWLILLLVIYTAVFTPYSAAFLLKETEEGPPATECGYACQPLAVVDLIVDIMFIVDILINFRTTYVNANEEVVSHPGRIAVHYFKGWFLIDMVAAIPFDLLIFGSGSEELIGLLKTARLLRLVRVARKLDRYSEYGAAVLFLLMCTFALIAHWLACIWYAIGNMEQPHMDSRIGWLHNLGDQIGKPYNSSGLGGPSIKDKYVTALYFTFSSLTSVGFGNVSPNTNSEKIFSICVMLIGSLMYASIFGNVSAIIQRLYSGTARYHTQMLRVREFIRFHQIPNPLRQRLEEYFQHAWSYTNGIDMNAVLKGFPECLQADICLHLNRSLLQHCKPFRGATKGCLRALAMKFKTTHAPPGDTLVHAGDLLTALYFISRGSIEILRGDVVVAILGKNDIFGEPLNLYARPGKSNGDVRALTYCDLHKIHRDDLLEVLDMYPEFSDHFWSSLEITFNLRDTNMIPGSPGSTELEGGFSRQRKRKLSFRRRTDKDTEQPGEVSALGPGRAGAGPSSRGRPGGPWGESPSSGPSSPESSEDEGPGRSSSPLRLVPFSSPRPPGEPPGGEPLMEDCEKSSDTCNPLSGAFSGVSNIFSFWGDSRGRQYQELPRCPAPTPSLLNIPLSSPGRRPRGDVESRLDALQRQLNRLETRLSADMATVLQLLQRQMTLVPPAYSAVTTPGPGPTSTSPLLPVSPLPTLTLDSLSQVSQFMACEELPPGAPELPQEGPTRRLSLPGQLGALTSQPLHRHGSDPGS
Assay: primary screen, population patch clamp on CHO cells stably expressing hERG; higher = less effect of the substance
Out of some 310,000 compounds screened, about 14,000 (4.5%) showed an effect of 50% or more. Effects have a minus sign here. The full list was thinned out, with strong results kept by preference.
Measured Property: hERG current change (%, negative = inhibition) at 10uM (%)
The figure you give is taken to be in %; do not add the unit.

Worked examples follow.
{"columns": ["Compound", "Observed"],
 "data": [
  ["NS(=O)(=O)c1ccc(CCNC(=O)c2cc([N+](=O)[O-])ccc2N2CCOCC2)cc1", -15.2],
  ["CN(CC(=O)Nc1ccc(F)cc1)C(=O)COC(=O)c1cc([N+](=O)[O-])ccc1N1CCOCC1", -64.3],
  ["O=C(NCC1CCCO1)NC1(C(F)(F)F)Oc2ccccc2O1 (stereo not drawn)", 1.63],
  ["Cc1ccc(N(CC(O)CN2C(=O)NC(C)(C)C2=O)S(=O)(=O)c2ccc([N+](=O)[O-])cc2)cc1 (stereo not drawn)", -32.7],
  ["O=C(NCCc1cccc(Cl)c1)c1cccc([N+](=O)[O-])c1", -15.7],
  ["NC(=S)NNc1c(F)c(F)c(F)c(F)c1F", 28.9],
  ["O=C(COC(=O)c1cc([N+](=O)[O-])ccc1N1CCOCC1)c1ccccc1", -20.1],
  ["CN(/N=C/c1cccc(Br)c1)C1=NS(=O)(=O)c2ccccc21", -11.8]
]}

// hERG current change (%, negative = inhibition) at 10uM lookup, key: `Cc1cccc(C)c1NC(=O)CCc1nnc2ccc(N3CCCC3)nn12`
10.3

What would you report for `CN(CC(=O)Nc1ccccc1Cl)C(=O)COC(=O)c1cc([N+](=O)[O-])ccc1N1CCOCC1` ?
-44.4

What about this compound? `O=C(Cn1cc(C(F)(F)F)ccc1=O)NCc1ccc(F)cc1`
15.6

Proceed to `C[C@@H](CSc1ccccc1)CN1CC[C@H](NC(=O)OCc2ccccc2)CCC1=O`
-44.2

Moving on to `N=C1/C(=C\c2ccc(-c3cccc(C(=O)O)c3)o2)C(=O)N=C2SC=C(c3ccccc3)N12`
0.469

Cc1ccc(N(CC(O)CN2CCOCC2)S(=O)(=O)c2ccc3ccccc3c2)cc1 (stereo not drawn) , same question.
-67.4

Also COc1ccc2nc(NC(=O)C(NS(=O)(=O)c3cccc4nsnc34)C(C)C)sc2c1 (stereo not drawn) ?
10.4

CCOc1ccc(C2c3[nH]c4ccccc4c3C[C@H]3C(=O)N(C4CCN(Cc5ccccc5)CC4)CC(=O)N23)cc1OC (stereo partly drawn) , same question.
-5.25

Next compound up: `Cc1ccc(Oc2nnc(-c3cccs3)c3ccccc23)cc1`
-0.00742

Here is the next compound: `CCOc1ccc(Cn2nnc(C(=O)NCc3ccc(OC)cc3)c2N)cc1`
6.41

====

Molecular target: human ether-à-go-go-related gene (hERG) potassium channel (human, UniProt Q12809);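 further: peak tail current of the secondary pulse compared with the same well before compound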
Experiment: primary screen, population patch clamp on CHO cells stably expressing hERG; higher = less effect of the substance
The whole screen tested about 310,000 compounds, of which about 14,000 (4.5%) showed an effect of 50% or more. Effects have a minus sign here. Only a selection was taken, and strong results are over-represented in it overall.
Measured Property: hERG current change (%, negative = inhibition) at 10uM (%)
Your answer should be a plain number; it is taken to be in %.

Recorded results for 4 compounds are shown here.
{"columns": ["Compound", "Observed"],
 "data": [
  ["O=C(CN(Cc1ccco1)C(=O)Cn1nnc(-c2cccs2)n1)NCC1CCCO1 (centres unmarked)", 6.63],
  ["Cc1ccc(OCC(=O)N2CCN(C3=NS(=O)(=O)c4ccccc43)CC2)cc1", -60.8],
  ["Cc1ccc(OCC(=O)N2CCN(C(=O)Cc3ccccc3)CC2)cc1", -38.4],
  ["Cc1ccccc1OCCCC(=O)Nc1ccc(Br)cc1", 5.24]
]}

Lab note: next compound to report on.
Tell me the measured hERG current change (%, negative = inhibition) at 10uM of `O=C(CN(Cc1ccco1)C(=O)Cn1nnc(-c2cccs2)n1)NCc1ccccc1` , please.
-51.7

====

Target: human ether-à-go-go-related gene (hERG) potassium channel (human, UniProt Q12809);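 further: peak tail current of the secondary pulse compared with the same well before compound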
Experiment: primary screen, population patch clamp on CHO cells stably expressing hERG; higher = less effect of the substance
Screen size: about 310,000 compounds; about 14,000 (4.5%) showed an effect of 50% or more. The effect is printed as a negative number. The sample holds strong results, similar compounds and a random draw of the others, so the mix is not that of the screen.
Is hERG current change (%, negative = inhibition) at 10uM at least -30%? Then condition met. If not, condition not met.

Look over these answered cases.
{"columns": ["Compound", "Target Under Test", "Class Label"],
 "data": [
  ["CN(CC(=O)NCCc1ccccn1)S(=O)(=O)c1ccc(Cl)cc1", "human ether-à-go-go-related gene (hERG) potassium channel (human, UniProt Q12809)", "condition met"],
  ["CN(Cc1ccccc1)S(=O)(=O)c1ccc(Cl)c(C(=O)NCCc2ccccn2)c1", "human ether-à-go-go-related gene (hERG) potassium channel (human, UniProt Q12809)", "condition not met"],
  ["O=C(COc1ccc(-n2cnnn2)cc1)Nc1ccccc1OC(F)F", "human ether-à-go-go-related gene (hERG) potassium channel (human, UniProt Q12809)", "condition met"],
  ["CC(C)(C)OC(=O)N1CCC(c2c(C(=O)N3CCN(C4CCCCC4)CC3)cnn2-c2ccccc2)CC1", "human ether-à-go-go-related gene (hERG) potassium channel (human, UniProt Q12809)", "condition not met"],
  ["CC(C)(C)OC(=O)N1CCC(c2c(C(=O)N3CCN(C4CCCCC4)CC3)cnn2-c2ccc(F)cc2)CC1", "human ether-à-go-go-related gene (hERG) potassium channel (human, UniProt Q12809)", "condition not met"]
]}

Does `CCN(CC)C(=O)CN(C#N)c1nc(C)cc(C)n1` have a reported hERG current change (%, negative = inhibition) at 10uM of at least -30%?
condition met

Would you kindly repeat that for CCN(CC)C(=O)C1CCCN(Cc2ccc3c(c2)OCO3)C1 (stereo not drawn) ?
condition met

Another compound: CCOCCn1c(=O)c2c(nc3n2CC(C)CN3CCc2ccccc2)n(C)c1=O (stereo not drawn)
condition not met

====

Target: human ether-à-go-go-related gene (hERG) potassium channel (human);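 further: peak tail current of the secondary pulse compared with the same well before compound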
Experiment: primary screen, population patch clamp on CHO cells stably expressing hERG; higher = less effect of the substance
Method: Briefly, Chinese hamster ovary (CHO) cells stably expressing the hERG channel were dislodged from tissue culture flasks and dispensed into PPC plates. […] During the recording, background leak currents were estimated by a 100 ms step to -80 mV from an initial holding potential of -70 mV and subtracted from the subsequent current measurement. The campaign was conducted in two phases using slight differences in recording protocol. […]
The campaign covered roughly 310,000 compounds. About 14,000 (4.5%) showed an effect of 50% or more. Effects have a minus sign here. The sample holds strong results, similar compounds and a random draw of the others, so the mix is not that of the screen.
Measured Property: hERG current change (%, negative = inhibition) at 10uM (%)
Unit % implied. Number only.

Please report the recorded hERG current change (%, negative = inhibition) at 10uM for `COc1ccc(C(=O)N2CCN(C(=O)Cc3ccccc3)CC2)cc1OC` .
5.3

Check `Cc1ccc(C)c(NC(=O)c2nnn(Cc3ccccc3)c2N)c1` too.
-6.11

Also check `Cc1cccc(CNC(=O)c2ccc(NC(=O)C3=CSCCO3)cc2)c1`
5.08

Now this one: `CCc1ccc(NC(=O)NCCCN2CCCC2=O)cc1`
0.255

`Cc1cc(C)cc(NC(=O)CSc2ccc(-c3ccccn3)nn2)c1` , same question.
8.61

What about this compound? `CC(C)(C)c1ccc(O)c(N)c1`
8.01

Again, but for `CN1CCc2nc(NC(=O)COc3ccc(C#N)cc3)sc2C1`
-7.85

Moving on to `COc1cc2c(cc1OC)CN(C(=O)c1ccc(OC)c([N+](=O)[O-])c1)CC2`
4.43

Next: `Cc1ccc(-n2c(SCC(N)=O)nnc2-c2ccccn2)cc1C`
8.79

====

Entries annotated with measured hERG current change (%, negative = inhibition) at 10uM
Biological target: human ether-à-go-go-related gene (hERG) potassium channel (human);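 further: peak tail current of the secondary pulse compared with the same well before compound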
Assay: primary screen, population patch clamp on CHO cells stably expressing hERG; higher = less effect of the substance
About 14,000 (4.5%) of roughly 310,000 compounds showed an effect of 50% or more. Effects have a minus sign here. The entries come from a sample that favours strong results as a whole.
Form field: result (number plus unit)

Known results for molecules:
{"columns": ["Molecule", "Observed"],
 "data": [
  ["COc1ccc2oc(C(=O)OCc3nnc(-c4ccccc4)o3)c(C)c2c1", "19.8%"],
  ["CCN1CCc2c(OCC(=O)Nc3ccc4c(c3)OCCO4)cccc2C1=O", "5.28%"]
]}

Look up hERG current change (%, negative = inhibition) at 10uM for this molecule: `Cc1cc(C)cc(NC(=S)N2CCN(CCO)CC2)c1`
14.3%

One more molecule: COc1ccc(NC(=O)C(Sc2nnc3ccccn23)c2ccccc2)cc1Cl (stereo not drawn)
-1.62%

Item: `COc1ccc(Nc2nc(Nc3ccc(OC)cc3)nc(-n3[nH]c(=O)c(C)c3C)n2)cc1`
-10.1%
